System: BRM-dependent transcription (BRG1 mutant lung cancer cell line A549)
Test: BRM-dependent transcription, MMTV luciferase reporter in BRG1 mutant A549 cells
Type: cell-based
Settings: MMTV luciferase reporter cell lines, selectivity BRG1/BRM, Table 11
Parameter measured: Ratio (MDA-MMTV IC50 (μM) divided by A549-MMTV IC50 (μM))

Structure | Endpoint value
CCOc1nc([C@H](C)F)ccc1-c1ccc2cnc(CNC(=O)c3cc(F)c4c(c3)S(=O)(=O)[C@@H](F)CCO4)cc2n1 | 36.69

a: O=C(NCc1cc2nc(-c3cccc(OC(F)(F)F)n3)ccc2cn1)c1cc(F)c2c(c1)S(=O)(=O)[C@@H](F)CCO2
b: O=C(NCc1cc2nc(-c3cccc(C4CC4)n3)ccc2cn1)c1cc(Br)c2c(c1)S(=O)(=O)[C@@H](F)COC2
IN: Among a and b , which shows a numerically higher Ratio (MDA-MMTV IC50 (μM) divided by A549-MMTV IC50 (μM)) result? Pick one; state its label.
OUT: b
(b: 39.11, a: 22.13)
